STUDY_SYSTEM: T1, PSMA Fab (biotinylated (site not given))
T1 construct: Biotinylated PSMA Fab captured on neutravidin plates in the phage ELISA; also called Anti-PSMA Fab; 006 PSMA Fab
ASSAY_TEXT: phage ELISA on captured biotinylated PSMA Fab, wells pre-incubated with PSMA antigen (competitor: PSMA); anti-M13 HRP detection
Where no end group is shown, it is not given here.
Assign Phage binding ELISA signal, Anti-PSMA Fab in presence of PSMA to each entry below.
Give bare numbers.

Check out these entries, answers already filled in.
FEKWCIPAWMCEQV (peptide, not shown: large carriers, cysteine pairing not given here; also: displayed as fusion to phage pIII, Clonal phage of the Peptide-180 optimisation library, tested as crude supernatant) [Phage-2468] = 0.0596
WSNWCIPPWMCAMN (peptide, not shown: large carriers, cysteine pairing not given here; also: displayed on phage as fusion to pIII, pIII and linker sequence not given here, Clonal phage of the Peptide-180 optimisation library, tested as crude supernatant) [Phage-2481] = 0.0771
EMIRCIPDWMCMSY (peptide, not shown: large carriers, cysteine pairing not given here; also: displayed on phage as fusion to pIII, pIII and linker sequence not given here, Clonal phage of the Peptide-180 optimisation library, tested as crude supernatant) [Phage-2478] = 0.0624

For the next question, use this binder.
Summary for this binder, PFKWCTPAWMCEVH (peptide, not shown: large carriers, cysteine pairing not given here; also: displayed on phage as fusion to pIII, pIII and linker sequence not given here, Clonal phage of the Peptide-180 optimisation library, tested as crude supernatant) [Phage-2480] : Phage binding ELISA signal, Anti-PSMA Fab in presence of PSMA is 0.0594
